Data origin, for the record: patent EP4772535A1

Biological target: T1, human/cynomolgus monkey ROR1 protein (Acro Biosystems, Cat. No.: RO1-H522y) (human/cynomolgus monkey, UniProt Q01973 30-403)
T1 construct: Bought SPR analyte
T1 sequence (Q01973 30-403 limits assumed): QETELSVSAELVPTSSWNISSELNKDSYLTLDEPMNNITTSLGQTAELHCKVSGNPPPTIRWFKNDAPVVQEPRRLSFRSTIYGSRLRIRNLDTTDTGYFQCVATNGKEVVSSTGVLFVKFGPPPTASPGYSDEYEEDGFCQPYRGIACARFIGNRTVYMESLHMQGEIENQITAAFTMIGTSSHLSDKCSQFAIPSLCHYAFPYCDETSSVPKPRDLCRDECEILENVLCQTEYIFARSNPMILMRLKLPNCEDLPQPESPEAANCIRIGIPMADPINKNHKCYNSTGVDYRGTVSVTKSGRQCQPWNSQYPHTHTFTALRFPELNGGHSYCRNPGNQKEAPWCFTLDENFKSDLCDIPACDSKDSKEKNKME
Assay: SPR (Biacore), antibody captured on anti-hIgG CM5 chip, ROR1 protein as analyte, method of Example 5
observable: Kd (nM)
Response body: numeric value in nM, unit text excluded.

Data request: State its Kd: UC-961 (antibody, V domains shown) VH: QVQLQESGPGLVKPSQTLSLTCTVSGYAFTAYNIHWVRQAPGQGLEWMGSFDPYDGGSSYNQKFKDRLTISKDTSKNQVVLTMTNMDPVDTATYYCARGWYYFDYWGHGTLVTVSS VL: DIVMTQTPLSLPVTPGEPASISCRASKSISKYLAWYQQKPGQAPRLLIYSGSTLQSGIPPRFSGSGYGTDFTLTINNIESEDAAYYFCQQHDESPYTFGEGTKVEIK
Data returned: 1.17

Data request: State its Kd: hz137G11D10-2.2 (antibody, human IgG1, kappa, V domains shown, Humanized, human IgG1/kappa) VH: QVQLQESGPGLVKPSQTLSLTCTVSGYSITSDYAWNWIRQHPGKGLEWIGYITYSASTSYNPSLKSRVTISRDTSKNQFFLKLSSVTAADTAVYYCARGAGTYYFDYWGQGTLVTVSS VL: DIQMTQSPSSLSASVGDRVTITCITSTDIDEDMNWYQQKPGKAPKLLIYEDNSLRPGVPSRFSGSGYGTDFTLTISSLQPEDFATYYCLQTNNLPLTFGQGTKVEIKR
Data returned: 0.343

Data request: State its Kd: hz135A2B10-1.1 (antibody, human IgG1, kappa, V domains shown, Humanized, human IgG1/kappa) VH: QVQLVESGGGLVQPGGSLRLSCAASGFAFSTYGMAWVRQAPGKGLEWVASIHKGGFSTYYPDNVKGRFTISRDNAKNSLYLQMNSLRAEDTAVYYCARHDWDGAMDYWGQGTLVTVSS VL: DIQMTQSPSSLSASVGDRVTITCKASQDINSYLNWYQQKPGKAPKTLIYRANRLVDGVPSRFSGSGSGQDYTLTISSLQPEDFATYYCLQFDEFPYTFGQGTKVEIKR
Data returned: 0.527
